# experimental.system: cloned human V2 receptor (Homo sapiens)
# Construct: expressed in transfected cells
# Sequence (P30518 whole entry): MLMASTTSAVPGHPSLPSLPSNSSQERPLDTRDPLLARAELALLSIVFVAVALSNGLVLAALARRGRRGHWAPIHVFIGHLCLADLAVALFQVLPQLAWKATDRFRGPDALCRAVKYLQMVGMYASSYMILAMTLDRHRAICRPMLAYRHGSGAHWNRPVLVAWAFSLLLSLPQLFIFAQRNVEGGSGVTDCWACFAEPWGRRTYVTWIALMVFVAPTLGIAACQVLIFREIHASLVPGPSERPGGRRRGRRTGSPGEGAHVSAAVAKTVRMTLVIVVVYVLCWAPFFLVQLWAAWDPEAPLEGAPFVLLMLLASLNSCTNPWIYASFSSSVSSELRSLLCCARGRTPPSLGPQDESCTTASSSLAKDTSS
# protocol.text: In-vitro vasopressin receptor binding assay, V2
# condition.context: footnote 1: IC50 values (μM); 3H-arginine-8-vasopressin
value.type: IC50 (µM)
Answers are plain numbers, in µM.

CN(C)CCC1CCN(C(=O)c2ccc(NC(=O)c3ccccc3-c3ccccc3)cc2)c2ccccc2S1 (stereo not drawn) [Compound 11]	0.43
O=C(Nc1ccc(C(=O)N2CCC(CCS(=O)(=O)O)Sc3ccccc32)cc1)c1ccccc1-c1ccccc1 (stereo not drawn) [Compound 32]	0.012
CC(C)(N)C(=O)NCCC1CCN(C(=O)c2ccc(NC(=O)c3ccccc3-c3ccccc3)cc2)c2ccccc2S1.Cl (stereo not drawn) [Compound 39, Hydrochloride]	0.017
Cc1ccccc1C(=O)Nc1ccc(C(=O)N2CCC(CCO)Sc3ccccc32)cc1 (stereo not drawn) [Compound 18]	0.048
Cc1ccccc1C(=O)Nc1ccc(S(=O)(=O)N2CCC(CCO)Sc3ccccc32)cc1 (stereo not drawn) [Compound 5]	0.76

Below is a list of compounds. For each, state its recorded IC50.
1. O=C(O)CC1CCN(C(=O)c2ccc(NC(=O)c3ccccc3-c3ccccc3)cc2)c2ccccc2[S+]1[O-] (stereo not drawn) [Compound 24]
2. N#CCCC1CCN(C(=O)c2ccc(NC(=O)c3ccccc3-c3ccccc3)cc2)c2ccccc2S1 (stereo not drawn) [Compound 30]
3. O=C(Nc1ccc(C(=O)N2CCC(CCO)Sc3ccccc32)cc1)c1ccccc1-c1ccccc1 (stereo not drawn) [Compound 17]
4. O=C(O)CC1CCN(C(=O)c2ccc(NC(=O)c3ccccc3-c3ccccc3)cc2)c2ccccc2S1 (stereo not drawn) [Compound 29]
5. COC(=O)CC1CCN(C(=O)c2ccc(NC(=O)c3ccccc3-c3ccccc3)cc2)c2ccccc2S1 (stereo not drawn) [Compound 37]
6. O=CCC1CCN(C(=O)c2ccc(NC(=O)c3ccccc3-c3ccccc3)cc2)c2ccccc2S1 (stereo not drawn) [Compound 25]
7. O=C(O)CCC1CCN(C(=O)c2ccc(NC(=O)c3ccccc3-c3ccccc3)cc2)c2ccccc2S1 (stereo not drawn) [Compound 31]

Reply:
1: 0.108; 2: 0.069; 3: 0.008; 4: 0.004; 5: 0.05; 6: 0.014; 7: 0.009

----------
# experimental.system: vasopressin V1a receptor (Homo sapiens)
# protocol.text: In-vitro vasopressin receptor binding assay, V1a
# condition.context: footnote 1: IC50 values (μM)
Could you please report measured IC50 for the items listed next?
Numbers only, in µM.

// solved cases for IC50 follow
O=C(Nc1ccc(C(=O)N2CCC(CCO)Sc3ccccc32)cc1)c1ccccc1-c1ccccc1 (stereo not drawn) [Compound 17]	0.097
Cc1ccccc1C(=O)Nc1ccc(C(=O)N2CCC(CCO)Sc3ccccc32)cc1 (stereo not drawn) [Compound 18]	0.041

Now examine the next entry.
Ask: Query: IC50; subject: Cc1ccccc1C(=O)Nc1ccc(C(=O)N2CCC(CCN(C)C)Sc3ccccc32)cc1 (stereo not drawn) [Compound 9]
Reply: 1.5

----------
Could you please report measured Receptor Binding (% Inh. @ concentration in μM) V1a for the items listed next?
# experimental.system: vasopressin V1a receptor (Homo sapiens, UniProt P37288)
# Sequence (P37288 whole entry): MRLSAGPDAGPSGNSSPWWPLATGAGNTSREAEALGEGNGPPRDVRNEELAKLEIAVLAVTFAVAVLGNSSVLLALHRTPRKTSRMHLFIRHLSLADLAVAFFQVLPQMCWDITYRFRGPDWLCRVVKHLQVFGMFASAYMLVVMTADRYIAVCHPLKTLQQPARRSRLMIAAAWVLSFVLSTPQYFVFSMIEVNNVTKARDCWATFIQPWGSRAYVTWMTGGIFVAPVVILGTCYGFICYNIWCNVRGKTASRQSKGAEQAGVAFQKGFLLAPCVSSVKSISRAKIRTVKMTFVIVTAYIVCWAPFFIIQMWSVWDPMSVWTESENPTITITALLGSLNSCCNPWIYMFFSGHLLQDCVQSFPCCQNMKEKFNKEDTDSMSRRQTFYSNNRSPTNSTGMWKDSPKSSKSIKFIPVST
# protocol.text: In-vitro vasopressin receptor binding assay, V1a
# condition.context: 1 μM test compound
Numbers only, in % @ 1.

// solved cases for Receptor Binding (% Inh. @ concentration in μM) V1a follow
O=C(Nc1ccc(CN2C(=O)CC(CCO)Sc3ccccc32)cc1)c1ccccc1-c1ccccc1 (centres unmarked)	33
O=C(Nc1ccc(S(=O)(=O)N2CCC(CCO)Sc3ccccc32)cc1)c1ccccc1-c1ccccc1 (centres unmarked)	34
Cc1ccccc1C(=O)Nc1ccc(C(=O)N2CCC(CCN)Sc3ccccc32)cc1 (centres unmarked)	42
CNCCC1CCN(C(=O)c2ccc(NC(=O)c3ccccc3C)cc2)c2ccccc2S1 (centres unmarked)	50

Now examine the next entry.
Ask: Query: Receptor Binding (% Inh. @ concentration in μM) V1a; subject: Cc1ccccc1C(=O)Nc1ccc(CN2C(=O)CC(CCO)Sc3ccccc32)cc1 (centres unmarked)
Reply: 54
